All figures here come from the supplement of paper PMC6555819.

# Test system: RARa:RXR (NR concentration 270 nM, RXRa partner concentration 90 nM)
# assayText: PBM binding z-score (relative to random genomic background probes); higher = stronger binding; sequences stand for … in GC…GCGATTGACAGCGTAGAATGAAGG
readoutName: PBM binding z-score
Answers are plain numbers.

>>> df
                        sequenceentry                              targetsystem          readoutname  numericresult
0  CCGATTAGGTTATGGGGCATTCAGGCAACGGTGA  RARa:RXR (NR concentration 270 nM, RXRa partner concentration 90 nM)  PBM binding z-score          0.615
1  TCTTGTAGATCAAGCAGGTTCAGAAAGCCTGAGT  RARa:RXR (NR concentration 270 nM, RXRa partner concentration 90 nM)  PBM binding z-score           0.45
2  GATACAGGGTCAAGTCCAGAGTACGCGTATTGAT  RARa:RXR (NR concentration 270 nM, RXRa partner concentration 90 nM)  PBM binding z-score           5.16
3  TAGACAGGGTCAAAGGCCAGAGTACGAATGTCGA  RARa:RXR (NR concentration 270 nM, RXRa partner concentration 90 nM)  PBM binding z-score           5.65

Give PBM binding z-score for each of the items listed below.
1. CGAACTAGTTCATTGACAGGACAGTGAATAGTAA
2. AGAATGAGGTTACCAAAGATCATGGAAACGCTTG
3. TCATATAGGTAAAAGGTTAAAGTCGGTGTGGTAA
4. AGAATGAGGTTATTAAGATCATGGAATTGCGGTC
5. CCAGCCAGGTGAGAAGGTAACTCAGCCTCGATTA
6. ATCGAACGGTCGAAGGTGAGTATACCCACCCGAA
7. CGAACGAGGGCATGAGTTGATATCAAATGCCGAT
8. ATCGCTAGGTAAAGTTCAGTGAAAGATCGATAGA

Response line:
0.372
2.58
4.32
1.53
-0.386
0.0689
0.352
0.812
